The reported measurements were obtained from paper PMC7156458.

# EXPERIMENTAL TARGET: Aβ42 (Homo sapiens)
# EXPERIMENT: Th-T (thioflavin-T) assay of Aβ42 aggregation
# Format: biochemical
# COND: concentration 10, unit not given; time-course reading M134
PARAMETER: Th-T fluorescence of Aβ42 with compound, mean of three wells (Fig. 7a source data)
I only need the number, thanks.

### Prompt Th-T fluorescence of Aβ42 with compound, mean of three wells (Fig. 7a source data) for C=C1CCC2C(C)(CCC=C(C)C)C(O)CCC2(C)C1Cc1c(OC)oc(CO)c(C)c1=O (centres unmarked) ?
### Response 2.346

### Prompt Th-T fluorescence of Aβ42 with compound, mean of three wells (Fig. 7a source data) for `C=C1CC[C@@H]2[C@](C)(CC[C@H]3O[C@H](C=C(C)C)C[C@@]23C)[C@@H]1Cc1c(OC)oc(CO)c(C)c1=O` ?
### Response 3.1894

### Prompt Th-T fluorescence of Aβ42 with compound, mean of three wells (Fig. 7a source data) for C=C1CCC2C(C)(CCC=C(C)C)C(O)CCC2(C)C1Cc1c(OC)oc(CO)c(C(=O)OC)c1=O (centres unmarked) ?
### Response 1.54

### Prompt Th-T fluorescence of Aβ42 with compound, mean of three wells (Fig. 7a source data) for C=C1CCC2C(C)(CCC=C(C)C)C(O)CCC2(C)C1Cc1c(OC)oc(C)c(C(=O)OC)c1=O (centres unmarked) ?
### Response 2.928

### Prompt Th-T fluorescence of Aβ42 with compound, mean of three wells (Fig. 7a source data) for `C=C1CC[C@@H]2[C@](C)(CC[C@H]3O[C@H](C=C(C)C)C[C@@]23C)[C@@H]1Cc1c(OC)oc(CO)c(C(=O)OC)c1=O` ?
### Response 1.726

----------
# EXPERIMENTAL TARGET: Aβ42 (Homo sapiens, UniProt P05067)
# Sequence (P05067 672-713): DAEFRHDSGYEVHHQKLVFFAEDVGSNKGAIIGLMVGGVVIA
# EXPERIMENT: Th-T (thioflavin-T) assay of Aβ42 aggregation
# Format: biochemical
# COND: column suffix _20; reading M100
Cut-off 2 on Fig. 7a Th-T reading, mean of three wells, inclusive. At or above means YES; below means NO.

### Prompt I'd appreciate it if you could say whether C=C1CCC2C(C)(CCC=C(C)C)C(O)CCC2(C)C1Cc1c(OC)oc(C)c(C(=O)OC)c1=O (centres unmarked) has Fig. 7a Th-T reading, mean of three wells at least equal to 2.
### Response NO

### Prompt I'd appreciate it if you could say whether `C=C1CC[C@@H]2[C@](C)(CC[C@H]3O[C@H](C=C(C)C)C[C@@]23C)[C@@H]1Cc1c(OC)oc(CO)c(C)c1=O` has Fig. 7a Th-T reading, mean of three wells at least equal to 2.
### Response YES

### Prompt I'd appreciate it if you could say whether `C=C1CC[C@@H]2[C@](C)(CC[C@H]3O[C@H](C=C(C)C)C[C@@]23C)[C@@H]1Cc1c(OC)oc(CO)c(C(=O)OC)c1=O` has Fig. 7a Th-T reading, mean of three wells at least equal to 2.
### Response NO

### Prompt I'd appreciate it if you could say whether C=C1CCC2C(C)(CCC=C(C)C)C(O)CCC2(C)C1Cc1c(OC)oc(CO)c(C(=O)OC)c1=O (centres unmarked) has Fig. 7a Th-T reading, mean of three wells at least equal to 2.
### Response NO

### Prompt I'd appreciate it if you could say whether C=C1CCC2C(C)(CCC=C(C)C)C(O)CCC2(C)C1Cc1c(OC)oc(CO)c(C)c1=O (centres unmarked) has Fig. 7a Th-T reading, mean of three wells at least equal to 2.
### Response YES

----------
# System: DL1 cells
# EXPERIMENT: cytotoxicity in Drosophila DL1 cells
# Format: cell-based
# COND: DL1 cells, 1 µM, replicate 1
Doc: threshold 200000 (exclusive). Items with Luminescence Raw1 beneath it return criterion met; others return criterion not met.

### Prompt Determine if C=C1CCC2C(C)(CCC=C(C)C)C(O)CCC2(C)C1Cc1c(OC)oc(CO)c(C)c1=O (centres unmarked) shows Luminescence Raw1 strictly lower than 200000.
### Response criterion met

### Prompt Determine if C=C1CCC2C(C)(CC(=O)C=C(C)C)C(O)CCC2(C)C1Cc1c(OC)oc(C)c(C)c1=O (centres unmarked) shows Luminescence Raw1 strictly lower than 200000.
### Response criterion not met

### Prompt Determine if C=C1CCC2C(C)(CCC=C(C)C)C(O)CCC2(C)C1Cc1c(O)c(C)c(C)oc1=O (centres unmarked) [Compound 4] shows Luminescence Raw1 strictly lower than 200000.
### Response criterion not met

### Prompt Determine if `C=C1CC[C@H]2[C@]3(C)C[C@H](C=C(C)C)O[C@H]3CC[C@]2(C)[C@@H]1Cc1c(OC)oc(C)c(C)c1=O` shows Luminescence Raw1 strictly lower than 200000.
### Response criterion met

### Prompt Determine if `C=C1CC[C@H]2[C@]3(C)C[C@H](C=C(C)C)O[C@H]3CC[C@]2(C)[C@@H]1Cc1c(OC)oc(CO)c(C)c1=O` shows Luminescence Raw1 strictly lower than 200000.
### Response criterion met

----------
# EXPERIMENTAL TARGET: Aβ42 (Homo sapiens)
# EXPERIMENT: Th-T (thioflavin-T) assay of Aβ42 aggregation
# Assay type: biochemical
# COND: column suffix _20; reading M89
Doc: threshold 1 (exclusive). Items with Fig. 7a Th-T reading, mean of three wells beneath it return true; others return false.

### Prompt Determine if C=C1CC[C@@H]2[C@](C)(CC[C@H]3O[C@H](C=C(C)C)C[C@@]23C)[C@@H]1Cc1c(OC)oc(CO)c(C)c1=O [Compound 20] shows Fig. 7a Th-T reading, mean of three wells strictly lower than 1.
### Response false

### Prompt Determine if C=C1CCC2C(C)(CCC=C(C)C)C(O)CCC2(C)C1Cc1c(OC)oc(CO)c(C(=O)OC)c1=O (centres unmarked) [Compound 13] shows Fig. 7a Th-T reading, mean of three wells strictly lower than 1.
### Response false

### Prompt Determine if C=C1CCC2C(C)(CCC=C(C)C)C(O)CCC2(C)C1Cc1c(OC)oc(CO)c(C)c1=O (centres unmarked) [Compound 12] shows Fig. 7a Th-T reading, mean of three wells strictly lower than 1.
### Response false

### Prompt Determine if C=C1CCC2C(C)(CCC=C(C)C)C(O)CCC2(C)C1Cc1c(OC)oc(C)c(C(=O)OC)c1=O (centres unmarked) [Compound 14] shows Fig. 7a Th-T reading, mean of three wells strictly lower than 1.
### Response false

### Prompt Determine if C=C1CC[C@@H]2[C@](C)(CC[C@H]3O[C@H](C=C(C)C)C[C@@]23C)[C@@H]1Cc1c(OC)oc(CO)c(C(=O)OC)c1=O [Compound 21] shows Fig. 7a Th-T reading, mean of three wells strictly lower than 1.
### Response true

----------
What GI50 was measured for each of the following?
# System: OVCAR-5
# EXPERIMENT: cells
# Design: species or system JFCR39 human cancer cell lines; JFCR39 panel growth inhibition, sulforhodamine B total protein after 48 h
# COND: Homo sapiens, OVCAR-5, 48 h
A complete answer gives the number followed by the unit.

### Prompt Recorded GI50 for C=C1CC[C@@H]2[C@](C)(CC[C@H]3O[C@H](C=C(C)C)C[C@@]23C)[C@@H]1Cc1c(OC)oc(CO)c(C)c1=O [Compound 20] with OVCAR-5, please?
### Response 16.4 µM

### Prompt Recorded GI50 for C=C1CC[C@@H]2[C@](C)(CC[C@H]3O[C@H](C=C(C)C)C[C@@]23C)[C@@H]1Cc1c(OC)oc(CO)c(C(=O)OC)c1=O [Compound 21] with OVCAR-5, please?
### Response 16.6 µM

### Prompt Recorded GI50 for C=C1CCC2C(C)(CCC=C(C)C)C(O)CCC2(C)C1Cc1c(OC)oc(CO)c(C(=O)OC)c1=O (stereo not shown) [Compound 13] with OVCAR-5, please?
### Response 17.3 µM

### Prompt Recorded GI50 for C=C1CC[C@@H]2[C@](C)(CC[C@H]3O[C@H](C=C(C)C)C[C@@]23C)[C@@H]1Cc1c(OC)oc(C)c(C)c1=O [Compound 22, O-methylated higginsianin A] with OVCAR-5, please?
### Response 13.4 µM

----------
What Luminescence Raw2 was measured for each of the following?
# System: l(2)mbn cells
# EXPERIMENT: cytotoxicity in Drosophila l(2)mbn cells
# Format: cell-based
# COND: 10 µM, replicate 2
I only need the number, thanks.

### Prompt Recorded Luminescence Raw2 for C=C1CCC2C(C)(CC(=O)C=C(C)C)C(O)CCC2(C)C1Cc1c(OC)oc(C)c(C)c1=O (stereo not drawn) [Compound 25] with l(2)mbn cells, please?
### Response 3480138

### Prompt Recorded Luminescence Raw2 for C=C1CCC2C(C)(CCC=C(C)C)C(O)CCC2(C)C1Cc1c(OC)oc(C)c(C)c1=O (stereo not drawn) [Compound 15, viridoxin A hydrolysate] with l(2)mbn cells, please?
### Response 319326

### Prompt Recorded Luminescence Raw2 for C=C1CC[C@H]2[C@]3(C)C[C@@H](C=C(C)C)O[C@H]3CC[C@]2(C)[C@@H]1Cc1c(OC)oc(CO)c(C)c1=O [Compound 17] with l(2)mbn cells, please?
### Response 121376

### Prompt Recorded Luminescence Raw2 for C=C1CCC2C(C)(CCC=C(C)C)C(O)CCC2(C)C1Cc1c(OC)oc(CO)c(C(=O)OC)c1=O (stereo not drawn) [Compound 13] with l(2)mbn cells, please?
### Response 623453

### Prompt Recorded Luminescence Raw2 for C=C1CC[C@H]2[C@]3(C)C[C@H](C=C(C)C)O[C@H]3CC[C@]2(C)[C@@H]1Cc1c(OC)oc(C)c(C)c1=O [Compound 24] with l(2)mbn cells, please?
### Response 160006

### Prompt Recorded Luminescence Raw2 for C=C1CCC2C3(C)CC(C=C(C)C)OC3CCC2(C)C1Cc1c(OC)oc(C)c(C)c1=O (stereo not drawn) [Compound 23] with l(2)mbn cells, please?
### Response 176952
